- tgt: T1, human C-KIT, full length, on cells (human, UniProt P10721 26-976)
- T1 construct: full-length cDNA stably transfected in CHO-K1; also used here for endogenous C-KIT of TF-1 cells; also called human C-KIT+ CHO-K1 cells; C-KIT on TF-1 cells
- measurement.protocol: flow cytometry, C-KIT-transfected CHO-K1 cells, IgG1 format
attribute.measured: EC50 (read off the curve)

Please review the following examples before continuing.
# binder, experimental.value
records = [
    ("chimeric anti-C-KIT antibody m37M, human IgG1 (antibody, V domains shown) VH: QVQLKQSGAELVRPGASVKLSCKASGYTFTDYYINWVKQRPGQGLEWIARIYPGSGNTYYNEKFKGKATLTAEKSSSTAYMQLSSLTSEDSAVYFCARGVYYFDYWGQGTTLTVSS VL: DIVMTQSQKFMSTSVGDRVSVTCKASQNVRTNVAWYQQKPGQSPKALIYSASYRYSGVPDRFTGSGSGTDFTLTISNVQSEDLADYFCQQYNSYPRTFGGGTKLEIKR", "~0.2 µg/mL"),
    ("MH5.34 (antibody, IgG1, V domains shown, IgG1; also called C-KIT-MH5.34) VH: QVQLVQSGAEVKKPGASVKVSCKASGYTFTNYYMNWVRQAPGQGLEWMGRIYPASGNTYYAQKFQGRVTMTRDTSTSTVYMELSSLRSEDTAVYYCARGVWYFDSWGQGTLVTVSS VL: DIQMTQSPSSLSASVGDRVTITCRASQGIRTNLAWFQQKPGKAPKSLIYAASSLQSGVPSRFSGSGSGTDFTLTISSLQPEDFATYYCQQYANYPRTFGGGTKVEIK", "~0.2 µg/mL"),
]

Annotate the binder MH5.35 (antibody, IgG1, V domains shown, IgG1; also called C-KIT-MH5.35) VH: QVQLVQSGAEVKKPGASVKVSCKASGYTFTNYYMNWVRQAPGQGLEWMGRIYPASGNTYYAQKFQGRVTMTRDTSTSTVYMELSSLRSEDTAVYYCARGVWYFDTWGQGTLVTVSS VL: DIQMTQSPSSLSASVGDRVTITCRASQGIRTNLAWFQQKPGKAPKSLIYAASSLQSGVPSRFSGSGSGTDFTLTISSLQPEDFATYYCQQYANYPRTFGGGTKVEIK with its measured EC50 (read off the curve).
~0.1 µg/mL
